Molecular target: rat mGluR5 (Rattus norvegicus)
Sequence (P31424 21-1203): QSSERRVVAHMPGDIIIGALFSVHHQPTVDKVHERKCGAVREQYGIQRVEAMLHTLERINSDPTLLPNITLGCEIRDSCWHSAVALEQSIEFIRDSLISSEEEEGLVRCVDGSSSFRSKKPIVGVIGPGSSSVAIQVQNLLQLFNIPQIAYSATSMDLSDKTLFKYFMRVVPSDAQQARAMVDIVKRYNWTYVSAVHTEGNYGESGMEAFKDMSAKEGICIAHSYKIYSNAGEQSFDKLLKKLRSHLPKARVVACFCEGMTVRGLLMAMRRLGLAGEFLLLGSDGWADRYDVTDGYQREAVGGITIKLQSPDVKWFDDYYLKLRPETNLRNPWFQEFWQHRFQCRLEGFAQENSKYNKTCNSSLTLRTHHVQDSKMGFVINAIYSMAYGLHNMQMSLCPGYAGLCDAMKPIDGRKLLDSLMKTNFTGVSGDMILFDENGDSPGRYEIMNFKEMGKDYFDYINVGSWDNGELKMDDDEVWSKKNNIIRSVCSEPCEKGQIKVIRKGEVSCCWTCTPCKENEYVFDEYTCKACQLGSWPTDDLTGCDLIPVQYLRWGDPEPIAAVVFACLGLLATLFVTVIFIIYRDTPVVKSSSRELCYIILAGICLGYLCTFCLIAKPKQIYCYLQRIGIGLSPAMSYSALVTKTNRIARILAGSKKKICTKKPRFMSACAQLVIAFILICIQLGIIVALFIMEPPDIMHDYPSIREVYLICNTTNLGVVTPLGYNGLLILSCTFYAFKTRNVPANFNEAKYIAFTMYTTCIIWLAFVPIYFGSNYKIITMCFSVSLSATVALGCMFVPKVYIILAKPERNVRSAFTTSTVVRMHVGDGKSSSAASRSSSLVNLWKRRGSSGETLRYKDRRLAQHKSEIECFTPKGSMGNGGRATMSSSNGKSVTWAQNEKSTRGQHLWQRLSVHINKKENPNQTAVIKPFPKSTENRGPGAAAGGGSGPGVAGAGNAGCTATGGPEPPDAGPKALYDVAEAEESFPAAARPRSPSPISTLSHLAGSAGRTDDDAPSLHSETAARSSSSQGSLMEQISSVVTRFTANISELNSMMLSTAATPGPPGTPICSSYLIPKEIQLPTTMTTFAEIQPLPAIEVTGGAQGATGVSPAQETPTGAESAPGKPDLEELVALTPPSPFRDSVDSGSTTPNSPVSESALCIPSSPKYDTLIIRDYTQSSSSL
Assay: mGluR5 calcium flux assay in HEK 293A cells, negative allosteric modulation of glutamate EC80 response
Conditions: HEK cells transfected with rat mGluR5; glutamate EC80; ± is standard error of at least three experiments
pIC50: −log10 of the molar value.
Quantity kind: pIC50

Worked examples, 3 compounds total:
Compound	Quantity kind	Endpoint result
Cc1cc(OCC2COCCO2)cc(C(=O)Nc2ccccn2)n1 (centres unmarked)	pIC50	5.75
Cc1cc(O[C@H]2CO[C@H](C)C2)cc(C(=O)Nc2nc(C)c(F)s2)n1	pIC50	5.89
Cc1cc(O[C@@H]2CCOC2)cc(C(=O)Nc2nc(C)cs2)n1	pIC50	7.38

A = COCCCOc1cc(C)nc(C(=O)Nc2ccc(F)cn2)c1
B = Cc1cc(O[C@@H]2CCOC2)cc(C(=O)Nc2ccc(F)cn2)n1
Return label of the item with the larger pIC50. Candidates: A , B . Write down the label of the entry you select.
B
(B: 7.39, A: 5.58)

P = Cc1cc(OC2CCCOC2)cc(C(=O)Nc2ccc(F)cn2)n1 (centres unmarked)
Q = COCCOc1cc(C)nc(C(=O)Nc2ccccn2)c1
R = Cc1cc(OCC2CCOC2)cc(C(=O)Nc2nc(C)cs2)n1 (centres unmarked)
Thanks in advance: please rank these 3 entries by pIC50, highest to lowest. Answer with the labels in sequence, matching the requested order.
Q, R, P
